- protocol.notes: activity coefficient (dimensionless); of the first substance listed, at infinite dilution; xn = mol fraction of the nth substance listed
- experimental.parameters: 322.65 K; Liquid; Chromatography; x1 = 0
property.label: activity coefficient

// known answers, use as guide
INSERT INTO results (compound, observed) VALUES
  ('CCC=O [propanal] + CCCCCC[N+](C)(C)C.O=S(=O)([N-]S(=O)(=O)C(F)(F)F)C(F)(F)F', 0.508),
  ('C1COCCO1 [1,4-dioxane] + CCCCCC[N+](C)(C)C.O=S(=O)([N-]S(=O)(=O)C(F)(F)F)C(F)(F)F', 0.655),
  ('CCc1ccccc1 [ethylbenzene] + CCn1cc[n+](C)c1.N#CN=C=[N-]', 7.43);

I'd like to know its activity coefficient. The compound in question is ClCCl [dichloromethane] + CCCCCC[N+](C)(C)C.O=S(=O)([N-]S(=O)(=O)C(F)(F)F)C(F)(F)F
0.678

And for CCCO [propan-1-ol] + CCn1cc[n+](C)c1.N#CN=C=[N-] ?
1.07

Same for CC(C)OC(C)C [diisopropyl ether] + CCn1cc[n+](C)c1.N#CN=C=[N-]
32.1

Next up: CCO [ethanol] + CCCCCC[N+](C)(C)C.O=S(=O)([N-]S(=O)(=O)C(F)(F)F)C(F)(F)F
2.41

Attribution: the NIST ThermoML archive (doi:10.1021/je9003178)
